assay.overview: A qHTS for Small Molecule Inhibitors of Shiga Toxin; further: 0% is about no effect
settings: Vero cells, Shiga toxin protein synthesis inhibition reporter; at 38.7 µM, hits give high values
Among all 290,000 compounds or so, about 27,000 (9.3%) were called active. The list comes from a sample in which actives are over-represented; it also holds close analogues and randomly drawn compounds.
Could you please report measured inhibition for the items listed next?

> print(dat)
                                   compound  observed.measurement
1  COc1ccccc1N1CCN(C(=O)c2cn(-c3ccccc3)nc2-c2cccnc2)CC1        39.2% (active)

Would you mind giving inhibition for every compound in the list below?
1. COc1ccc(C(=O)NC(C)CCc2ccccc2)c(OC)c1 (centres undefined)
2. O=C(CCl)Nc1ccc(Sc2ccc(NC(=O)CCl)cc2)cc1
3. CCOCCCNC(=O)C1(O)c2cc(Br)ccc2NC(=O)N1c1ccc(C)c(C)c1 (centres undefined)
4. COc1ccc(C(=O)Nc2nncs2)c(OC)c1
5. O=C(/C=C/c1ccco1)Nc1ccc(Oc2ccccc2)cc1
6. COc1ccc(C(=O)NCc2nnc(SCC(=O)NC3=NCCS3)n2C)cc1
7. CCc1nn(CCCC(=O)NCc2ccc(C)cc2)c(=O)c2cc3occc3n12
8. COc1ccc(C(=O)NC2=NCCS2)c(OC)c1

1: 22.2% (inactive); 2: 16% (inactive); 3: -7.51% (inactive); 4: 62.3% (active); 5: 80.2% (active); 6: -9.89% (inactive); 7: 18.7% (inactive); 8: 42% (active)

I need inhibition for every entry listed below, if you could help.
1. O=C(Nc1nncs1)c1ccccc1NS(=O)(=O)c1cccs1
2. Cc1ccccc1Nc1c([N+](=O)[O-])ccc2nonc12
3. COc1ccc(N(CC(=O)N2CCCCCC2)S(=O)(=O)c2ccccc2)cc1
4. N#CCc1ccc(NC(=O)c2ccccc2C(=O)Nc2ccc(CC#N)cc2)cc1
5. COc1ccccc1N1CCN(S(=O)(=O)c2ccc(Cl)cc2)CC1
6. CC(=O)Nc1ccc(-c2nc3ccccc3o2)cc1
7. O=C(NCc1ccc2c(c1)OCO2)c1ccc(Cl)s1
8. Cc1cc(C)c2oc(C(=O)Nc3ccc(S(=O)(=O)Nc4nccc(C)n4)cc3)cc(=O)c2c1

["-4.57% (inactive)", "-12% (inactive)", "32.1% (inactive)", "57.5% (active)", "-2.2% (inactive)", "54.7% (active)", "50.7% (inactive)", "2.27% (inactive)"]

Hi there! I need inhibition for each item below, if you can.
1. C/C(=N\NS(=O)(=O)c1ccc(Cl)cc1)c1ccc(NC(=O)c2ccco2)cc1
2. O=C(NC1=NCCS1)c1ccc(Cl)s1

1. 34% (active)
2. 149% (active)

Reference source for all entries: PubChem BioAssay AID2315
